Tested on: VRE (E. faecalis) ATCC 51575
Format: cell-based, Enterococcus faecalis
Settings: ATCC 51575, 18 h
Source text: The minimum growth inhibitory concentrations of the antibacterial peptides of the present invention weremeasured, and the results are shown in Table 3 below. […]
Square brackets hold non-standard residues; d marks the D form. Peptide text beside a SMILES is read from it.
Parameter: MIC VRE (E. faecalis) ATCC 51575 (µM)
A number alone suffices; assume µM.

Compound	Value Reported
CC(C)[C@@H](NC(=O)[C@H](N)Cc1c[nH]c2ccccc12)C(=O)N[C@@H](C(=O)N[C@H](Cc1c[nH]c2ccccc12)C(=O)N[C@H](C)C(=O)N[C@H](C)C(=O)N[C@H](Cc1c[nH]c2ccccc12)C(=O)N[C@H](CCCNC(=N)N)C(=O)N[C@H](CCCNC(=N)N)C(=O)N[C@H](CCCNC(=N)N)C(N)=O)C(C)C [KSH72, wvvwaawrrr] (H-[dW][dV][dV][dW][dA][dA][dW][dR][dR][dR]-NH2; N-terminus assumed)	5

Consider the record given below.
Query :: Quick one: MIC VRE (E. faecalis) ATCC 51575 of CC[C@@H](C)[C@@H](NC(=O)[C@@H](Cc1c[nH]c2ccccc12)NC(=O)[C@@H](CCCNC(=N)N)NC(=O)[C@@H](CCCNC(=N)N)NC(=O)[C@H](N)CCCNC(=N)N)C(=O)N[C@H](Cc1c[nH]c2ccccc12)C(=O)N[C@H](Cc1c[nH]c2ccccc12)C(=O)N[C@H](CC(C)C)C(=O)N[C@H](Cc1c[nH]c2ccccc12)C(=O)N[C@H](CCCCN)C(N)=O [KSH50, rrrwiwwlwk] (H-[dR][dR][dR][dW][dI][dW][dW][dL][dW][dK]-NH2; N-terminus assumed) ?
Result :: 1.25
